Notes on AC50 obtained with Cytochrome P450 3A4 (Homo sapiens).
Sequence (P08684 whole entry): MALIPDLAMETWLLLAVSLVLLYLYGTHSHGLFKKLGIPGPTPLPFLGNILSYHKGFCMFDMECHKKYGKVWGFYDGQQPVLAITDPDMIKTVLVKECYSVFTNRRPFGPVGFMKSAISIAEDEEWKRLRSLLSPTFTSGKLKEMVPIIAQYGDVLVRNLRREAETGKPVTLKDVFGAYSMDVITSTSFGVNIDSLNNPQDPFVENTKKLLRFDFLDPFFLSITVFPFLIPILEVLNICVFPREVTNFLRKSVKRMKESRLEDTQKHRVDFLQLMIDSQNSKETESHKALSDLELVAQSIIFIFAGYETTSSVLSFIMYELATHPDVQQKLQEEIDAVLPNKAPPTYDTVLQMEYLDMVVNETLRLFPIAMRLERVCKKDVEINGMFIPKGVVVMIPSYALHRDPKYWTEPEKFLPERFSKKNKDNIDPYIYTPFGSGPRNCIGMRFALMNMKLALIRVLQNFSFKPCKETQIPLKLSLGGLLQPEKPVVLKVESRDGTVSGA

{"smiles-repr": "C[n+]1c(/C=C/c2ccc(O)c3ncccc23)[se]c2ccccc21", "AC50": "3.98 µM (inconclusive)"}
{"smiles-repr": "Cc1ccc(C)c(C(=O)CN2C3=NCCCN3c3ccccc32)c1", "AC50": "12.6 µM (inconclusive)"}
{"smiles-repr": "Cc1c([C@@H](C)[C@H]2NC[C@H](C)C[C@@H]2O)ccc2c1C[C@@H]1[C@H]2CC=C2C[C@@H](O)CC[C@@]21C", "AC50": "3.16 µM (inconclusive)"}
{"smiles-repr": "CNc1oc(-c2ccc(Cl)cc2)nc1C#N", "AC50": "14.1 µM (inconclusive)"}
{"smiles-repr": "Cc1nc2cnc(Oc3ccccc3)nc2n(CCC#N)c1=O", "AC50": "25.1 µM (inconclusive)"}

meta.source: ChEMBL document CHEMBL1201862
